- experimental-target: human β3 adrenergic receptor (Homo sapiens)
- Construct: stably transfected with the cloned β-adrenergic receptor (β1, β2 or β3); expressed in transfected cells; host or cells: Chinese hamster ovary (CHO) cells, stably transfected
- procedure-details: Functional assay: cAMP production (LANCE TR-FRET) in CHO cells stably transfected with cloned β3 adrenergic receptor
- Type: cell-based
- conditions-used: Table 2; cAMP production, CHO cells expressing human β3 AR; read-out: Human β3 functional
- Procedure: Functional Assay: cAMP production in response to ligand is measured according to Barton, et al. (1991, Agonist-induced desensitization of D2 dopamine receptors in human Y-79 retinoblastoma cells. Mol. Pharmacal. v3229:650-658) modified as follows, cAMP production is measured using a homogenous time-resolved fluorescence resonance energy transfer immunoassay (LANCE™, Perkin Elmer) according to the manufacture's instructions. […]
Measured EC50 by item

Some solved entries appear below for comparison.
> print(dat)
                                   molecule        result
1  O=C(Cn1cnc2ccsc2c1=O)Nc1ccc(CC2CC[C@H]([C@H](O)c3cccnc3)N2)cc1 (some centres unmarked)    1 to 10 nM
2  Cc1cn(CC(=O)Nc2ccc(CC3CC[C@H]([C@H](O)c4cccnc4)N3)cc2)nn1 (some centres unmarked)  11 to 100 nM
3  O=C(Cn1ncccc1=O)Nc1ccc(CC2CC[C@H]([C@H](O)c3cccnc3)N2)cc1 (some centres unmarked)    1 to 10 nM
4  Nc1nc(CC(=O)Nc2ccc(CC3CC[C@H]([C@H](O)c4cccnc4)N3)cc2)cs1 (some centres unmarked)    1 to 10 nM
5  O=C(Cn1nc(Cc2ccccc2)c2ccccc2c1=O)Nc1ccc(CC2CC[C@H]([C@H](O)c3cccnc3)N2)cc1 (some centres unmarked)    1 to 10 nM

stdin: Find the recorded EC50 belonging to O=C(Cn1ccccc1=O)Nc1ccc(CC2CC[C@H]([C@H](O)c3cccnc3)N2)cc1 (some centres unmarked) and report it.
stdout: 1 to 10 nM

stdin: Next molecule: O=C(Cn1cncn1)Nc1ccc(CC2CC[C@H]([C@H](O)c3cccnc3)N2)cc1 (some centres unmarked)
stdout: 11 to 100 nM

stdin: Next molecule: Cc1cn(CC(=O)Nc2ccc(CC3CC[C@H]([C@H](O)c4cccnc4)N3)cc2)c(=O)[nH]c1=O (some centres unmarked)
stdout: 11 to 100 nM

---

- experimental-target: human β3 adrenergic receptor (Homo sapiens, UniProt P13945)
- Construct: stably transfected with the cloned β-adrenergic receptor (β1, β2 or β3); expressed in transfected cells; host or cells: Chinese hamster ovary (CHO) cells, stably transfected
- Sequence (P13945 whole entry): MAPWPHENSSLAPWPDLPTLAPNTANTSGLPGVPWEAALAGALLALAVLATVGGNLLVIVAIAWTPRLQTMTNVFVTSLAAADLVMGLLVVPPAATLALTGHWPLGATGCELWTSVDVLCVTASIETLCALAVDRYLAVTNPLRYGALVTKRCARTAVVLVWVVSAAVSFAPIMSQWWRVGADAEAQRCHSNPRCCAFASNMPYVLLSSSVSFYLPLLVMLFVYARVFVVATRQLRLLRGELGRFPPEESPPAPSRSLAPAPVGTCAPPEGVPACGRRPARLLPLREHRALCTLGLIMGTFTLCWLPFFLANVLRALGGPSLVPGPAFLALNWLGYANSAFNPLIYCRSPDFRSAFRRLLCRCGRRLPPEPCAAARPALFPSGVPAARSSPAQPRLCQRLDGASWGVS
- procedure-details: Functional assay: cAMP production (LANCE TR-FRET) in CHO cells stably transfected with cloned β3 adrenergic receptor
- Type: cell-based
- conditions-used: Table 2; cAMP production, CHO cells expressing human β3 AR; read-out: Human β3 functional
property-label: EC50

Some solved entries appear below for comparison.
> print(dat)
                                   molecule        result
1  O=C(Cn1c(=O)[nH]c2ccccc2c1=O)Nc1ccc(CC2CC[C@H]([C@H](O)c3cccnc3)N2)cc1 (stereo partly shown)    1 to 10 nM
2  O=C(Cn1cc2ccccc2n1)Nc1ccc(CC2CC[C@H]([C@H](O)c3cccnc3)N2)cc1 (stereo partly shown)  11 to 100 nM
3  O=C(CN1CCCOC1=O)Nc1ccc(CC2CC[C@H]([C@H](O)c3cccnc3)N2)cc1 (stereo partly shown)  11 to 100 nM

stdin: Missing value: EC50, human β3 adrenergic receptor (Homo sapiens, UniProt P13945), entry O=C(Cc1nc2ccccc2[nH]1)Nc1ccc(CC2CC[C@H]([C@H](O)c3cccnc3)N2)cc1 (stereo partly shown) . Fill in?
stdout: 11 to 100 nM

---

Measured EC50 by item
- experimental-target: human β3 adrenergic receptor (Homo sapiens)
- Construct: stably transfected with the cloned β-adrenergic receptor (β1, β2 or β3); expressed in transfected cells; host or cells: Chinese hamster ovary (CHO) cells, stably transfected
- procedure-details: Functional assay: cAMP production (LANCE TR-FRET) in CHO cells stably transfected with cloned β3 adrenergic receptor
- Assay type: cell-based
- conditions-used: Table 3; cAMP production, CHO cells expressing human β3 AR; read-out: Human β3 functional

> print(dat)
                                    molecule  property.label           result
 1  CC(C(=O)Nc1ccc(CC2CC[C@H]([C@H](O)c3cccnc3)N2)cc1)c1nccs1 (single isomer, unassigned) [Example 174]            EC50       1 to 10 nM
 2  CC(C(=O)Nc1ccc(CC2CC[C@H]([C@H](O)c3cccnc3)N2)cc1)c1nccs1 (single isomer, unassigned) [Example 175]            EC50       1 to 10 nM
 3  Cc1cnnn1C(C)C(=O)Nc1ccc(CC2CC[C@H]([C@H](O)c3cccnc3)N2)cc1 (single isomer, unassigned) [Example 213]            EC50       1 to 10 nM
 4  Cc1nc2c(s1)CCC2(C)C(=O)Nc1ccc(CC2CC[C@H]([C@H](O)c3cccnc3)N2)cc1 (single isomer, unassigned) [Example 129]            EC50  1000 to 3000 nM
 5  CC(C(=O)Nc1ccc(CC2CC[C@H]([C@H](O)c3cccnc3)N2)cc1)n1cnccc1=O (single isomer, unassigned) [Example 164]            EC50       1 to 10 nM
 6  CC(C(=O)Nc1ccc(CC2CC[C@H]([C@H](O)c3cccnc3)N2)cc1)n1nccn1 (single isomer, unassigned) [Example 143]            EC50       1 to 10 nM
 7  Cc1nnc2c(C(C)C(=O)Nc3ccc(CC4CC[C@H]([C@H](O)c5cccnc5)N4)cc3)cccn12 (single isomer, unassigned) [Example 217]            EC50     11 to 100 nM
 8  Cc1nc2c(s1)CCC2C(=O)Nc1ccc(CC2CC[C@H]([C@H](O)c3cccnc3)N2)cc1 (single isomer, unassigned) [Example 118]            EC50   101 to 1000 nM
 9  O=C(Nc1ccc(CC2CC[C@H]([C@H](O)c3cccnc3)N2)cc1)C1CCc2sc(F)nc21 (single isomer, unassigned) [Example 157]            EC50       1 to 10 nM
10  Cc1cc(C(C)C(=O)Nc2ccc(CC3CC[C@H]([C@H](O)c4cccnc4)N3)cc2)[nH]n1 (single isomer, unassigned) [Example 176]            EC50     11 to 100 nM

stdin: Find the recorded EC50 belonging to Cc1cnnn1C(C)C(=O)Nc1ccc(CC2CC[C@H]([C@H](O)c3cccnc3)N2)cc1 (single isomer, unassigned) [Example 212] and report it.
stdout: 101 to 1000 nM

stdin: Next molecule: CC(C(=O)Nc1ccc(CC2CC[C@H]([C@H](O)c3cccnc3)N2)cc1)c1cscn1 (single isomer, unassigned) [Example 196]
stdout: 11 to 100 nM

stdin: Next molecule: O=C(Nc1ccc(CC2CC[C@H]([C@H](O)c3cccnc3)N2)cc1)C1CCCc2ccnn21 (single isomer, unassigned) [Example 139]
stdout: 101 to 1000 nM

stdin: Next molecule: CC(C(=O)Nc1ccc(CC2CC[C@H]([C@H](O)c3cccnc3)N2)cc1)c1csc(C(F)(F)F)n1 (single isomer, unassigned) [Example 111]
stdout: 11 to 100 nM

stdin: Next molecule: CC(C(=O)Nc1ccc(CC2CC[C@H]([C@H](O)c3cccnc3)N2)cc1)n1cc(C(N)=O)nn1 (single isomer, unassigned) [Example 201]
stdout: 1 to 10 nM

stdin: Next molecule: Nc1nc2c(s1)CCC2C(=O)Nc1ccc(CC2CC[C@H]([C@H](O)c3cccnc3)N2)cc1 (single isomer, unassigned) [Example 114]
stdout: 11 to 100 nM

stdin: Next molecule: CC(C(=O)Nc1ccc(CC2CC[C@H]([C@H](O)c3cccnc3)N2)cc1)c1ccn[nH]1 (single isomer, unassigned) [Example 178]
stdout: 1 to 10 nM

stdin: Next molecule: COC(=O)c1cnnn1C(C)C(=O)Nc1ccc(CC2CC[C@H]([C@H](O)c3cccnc3)N2)cc1 (single isomer, unassigned) [Example 209]
stdout: 101 to 1000 nM

stdin: Next molecule: Cc1ccn(C(C)C(=O)Nc2ccc(CC3CC[C@H]([C@H](O)c4cccnc4)N3)cc2)n1 (single isomer, unassigned) [Example 99]
stdout: 11 to 100 nM

stdin: Next molecule: Cc1[nH]nc2c1CCC2C(=O)Nc1ccc(CC2CC[C@H]([C@H](O)c3cccnc3)N2)cc1 (single isomer, unassigned) [Example 155]
stdout: 11 to 100 nM

---

- experimental-target: human β3 adrenergic receptor (Homo sapiens)
- Construct: stably transfected with the cloned β-adrenergic receptor (β1, β2 or β3); expressed in transfected cells; host or cells: Chinese hamster ovary (CHO) cells, stably transfected
- procedure-details: Functional assay: cAMP production (LANCE TR-FRET) in CHO cells stably transfected with cloned β3 adrenergic receptor
- Assay type: cell-based
- conditions-used: Table 3; cAMP production, CHO cells expressing human β3 AR; read-out: Human β3 functional
property-label: EC50

Some solved entries appear below for comparison.
> print(dat)
                                   molecule                       experimental.target          result
1  O=C(Cc1nc2c(s1)CCC2C(=O)Nc1ccc(CC2CC[C@H]([C@H](O)c3cccnc3)N2)cc1)NCc1ccccc1 (single isomer, unassigned) [Example 135]  human β3 adrenergic receptor (Homo sapiens)    11 to 100 nM
2  CCCC(C(=O)Nc1ccc(CC2CC[C@H]([C@H](O)c3cccnc3)N2)cc1)c1csc(N)n1 (single isomer, unassigned) [Example 107]  human β3 adrenergic receptor (Homo sapiens)    11 to 100 nM
3  CC(C(=O)Nc1ccc(CC2CC[C@H]([C@H](O)c3cccnc3)N2)cc1)n1ccc(C(N)=O)n1 (single isomer, unassigned) [Example 203]  human β3 adrenergic receptor (Homo sapiens)  101 to 1000 nM
4  COC(=O)c1cn(C(C)C(=O)Nc2ccc(CC3CC[C@H]([C@H](O)c4cccnc4)N3)cc2)nn1 (single isomer, unassigned) [Example 150]  human β3 adrenergic receptor (Homo sapiens)      1 to 10 nM
5  COCc1nc2c(s1)CCC2C(=O)Nc1ccc(CC2CC[C@H]([C@H](O)c3cccnc3)N2)cc1 (single isomer, unassigned) [Example 125]  human β3 adrenergic receptor (Homo sapiens)    11 to 100 nM

Next, consider the following molecule.
stdin: Find the recorded EC50 belonging to O=C(Nc1ccc(CC2CC[C@H]([C@H](O)c3cccnc3)N2)cc1)C1CCc2sc(Br)nc21 (single isomer, unassigned) [Example 158] and report it.
stdout: < 1 nM
